bioavailability values for the compounds below.
TEST: Oral bioavailability in NMRI mouse at 5 mg/kg by LC-MS/MS analysis
Assay type: ADME, organism-based
CONDITION_DESCRIPTION: in vivo
METRIC_NAME: bioavailability (%)

>>> df
                                   compound      metric_name  value_observed
0  OC(CN1CCN(CC2CCCCC2)CC1)Cn1c2ccc(Cl)cc2c2cc(Cl)ccc21 (configuration not stated)  bioavailability              50
1  OC(CNC1CCCCC1)Cn1c2ccc(Br)cc2c2cc(Br)ccc21 (racemic)  bioavailability              50

---

Item-by-item account of pIC50
System: Plasmodium falciparum
TEST: Antimalarial activity against Plasmodium falciparum K1 infected in human RBC after 72 hrs by hypoxanthine incorporation assay in presence of serum albumin
Type: functional, organism-based
CONDITION_DESCRIPTION: K1, 72 h
pIC50: −log10 of the molar value.
METRIC_NAME: pIC50

>>> df
                                   compound      target_under_test  metric_name  value_observed
0  OC(CN1CCN(CC2CCCCC2)CC1)Cn1c2ccc(Cl)cc2c2cc(Cl)ccc21 (stereo not given)  Plasmodium falciparum        pIC50            7.80
1  OC(CNC1CCCCC1)Cn1c2ccc(Br)cc2c2cc(Br)ccc21 (racemic)  Plasmodium falciparum        pIC50            8.05
2  OC(CN1CCN(Cc2ccccc2)CC1)Cn1c2ccccc2c2ccccc21 (stereo not given)  Plasmodium falciparum        pIC50            6.56
3  OC(CN1CCN(Cc2ccccc2)CC1)Cn1c2ccccc2c2cc(Cl)ccc21 (stereo not given)  Plasmodium falciparum        pIC50            6.78
4  COC(CN1CCN(Cc2ccccc2)CC1)Cn1c2ccccc2c2ccccc21 (stereo not given)  Plasmodium falciparum        pIC50            5.48
5  FC(CN1CCN(CC2CCCCC2)CC1)Cn1c2ccc(Br)cc2c2cc(Br)ccc21 (stereo not given)  Plasmodium falciparum        pIC50            6.97
6  O=C(CN1CCN(CC2CCCCC2)CC1)Cn1c2ccc(Cl)cc2c2cc(Cl)ccc21  Plasmodium falciparum        pIC50            6.35
7  OC(CN1CCN(Cc2ccccc2)CC1)Cn1c2ccc(Br)cc2c2cc(Br)ccc21 (stereo not given)  Plasmodium falciparum        pIC50            7.57
8  O=C1CN(Cc2ccccc2)CCN1CC(O)Cn1c2ccc(Cl)cc2c2cc(Cl)ccc21 (stereo not given)  Plasmodium falciparum        pIC50            6.46
9  Clc1ccc2c(c1)c1cc(Cl)ccc1n2CCCN1CCN(CC2CCCCC2)CC1  Plasmodium falciparum        pIC50            6.15

---

Each entry below carries its recorded AUC.
TEST: AUC in NMRI mouse at 1 mg/kg, iv and 5 mg/kg, po by LC-MS/MS analysis
Assay type: ADME, organism-based
CONDITION_DESCRIPTION: plasma
METRIC_NAME: AUC (ng·h/mL)

>>> print(df.to_string())
                                   compound  metric_name  units_symbol  value_observed
0  OC(CNC1CCCCC1)Cn1c2ccc(Br)cc2c2cc(Br)ccc21 (racemic)          AUC       ng·h/mL            3750
1  OC(CN1CCN(CC2CCCCC2)CC1)Cn1c2ccc(Cl)cc2c2cc(Cl)ccc21 (configuration not stated)          AUC       ng·h/mL            1580

---

TEST: Terminal half life in NMRI mouse at 5 mg/kg, po by LC-MS/MS analysis
Type: ADME, organism-based
Design: dose 5 mg/kg, route oral
CONDITION_DESCRIPTION: in vivo, read-out: beta t1/2 (converted)
METRIC_NAME: half-life

>>> df
                                   compound  metric_name  value_observed
0  OC(CN1CCN(CC2CCCCC2)CC1)Cn1c2ccc(Cl)cc2c2cc(Cl)ccc21 (configuration not stated)    half-life             8 h
1  OC(CNC1CCCCC1)Cn1c2ccc(Br)cc2c2cc(Br)ccc21 (racemic)    half-life            15 h

---

TEST: Cmax in NMRI mouse at 1 mg/kg, iv and 5 mg/kg, po by LC-MS/MS analysis
Assay type: ADME, organism-based
CONDITION_DESCRIPTION: in vivo
METRIC_NAME: Cmax (ng/mL)

                                   compound  value_observed
0  OC(CN1CCN(CC2CCCCC2)CC1)Cn1c2ccc(Cl)cc2c2cc(Cl)ccc21 (configuration not stated)             135
1  OC(CNC1CCCCC1)Cn1c2ccc(Br)cc2c2cc(Br)ccc21 (racemic)             158

---

TEST: Volume of distribution at steady state in NMRI mouse at 1 mg/kg, iv by LC-MS/MS analysis
Format: ADME, organism-based
Set-up: dose 1 mg/kg, route intravenous
CONDITION_DESCRIPTION: in vivo, read-out: Vdss
Vd values by entry
METRIC_NAME: Vd

                                   compound  metric_name  value_observed
0  OC(CNC1CCCCC1)Cn1c2ccc(Br)cc2c2cc(Br)ccc21 (racemic)           Vd         13 L/kg
1  OC(CN1CCN(CC2CCCCC2)CC1)Cn1c2ccc(Cl)cc2c2cc(Cl)ccc21 (configuration not stated)           Vd         15 L/kg
